Exercise: state measured TGI for each of the compounds provided.
# Tested on: SK-MEL-2 melanoma
# EXPERIMENTAL_DETAILS: NCI tumour cell line growth inhibition, 48 h

Worked cases, answers included:
C=C(C)CCC(C)N1CCC(N2CCC(C(=O)NCCc3ccccc3)CC2)CC1 (stereo not drawn) = 54.3 µM
COc1ccccc1-c1c(C)nn2c(NCc3ccccn3)cc(C)nc12 = > 50 µM

Data request: State the recorded TGI for this entry: O=C1C(=O)N(C2CCCCC2)C(=S)N1C1CCCCC1
Data returned: > 100 µM

====

# Test system: SW-620 colon
# EXPERIMENTAL_DETAILS: NCI tumour cell line growth inhibition, 48 h
Exercise: state measured TGI for each of the molecules provided.

O=[N+]([O-])c1nccn1CC1OC(n2ccnc2[N+](=O)[O-])C(O)C(O)C1O (stereo not drawn) = > 100 µM
O=C(O)CCC1CCc2cccc3occ1c23 (stereo not drawn) = > 100 µM

Data request: Lab note: need TGI for CC1=NN(C(=O)c2ccc(Cl)cc2)C(=O)/C1=C/c1cccc([N+](=O)[O-])c1 on SW-620 colon, anyone have it?
Data returned: > 100 µM

====

# Tested on: ACHN renal
# EXPERIMENTAL_DETAILS: NCI tumour cell line growth inhibition, 48 h
MEASURED_ENDPOINT: TGI

Worked cases, answers included:
Clc1ncnc2c1nc(C#Cc1ccccc1)n2Cc1ccccc1 = > 100 µM
CCCCCCCCCCCCC(=O)[O-].CCCCCCCCCCCCC(=O)[O-].CCCCCCCCCCCCC(=O)[O-].CCCCCCCCCCCCC(=O)[O-].[Mo+2].[Mo+2] = 30.4 µM

Data request: State the recorded TGI for this entry: CC(=O)Nc1ccc(N2C(=O)/C(=C\c3cccc(Oc4ccccc4)c3)SC2c2ccccc2)cc1 (stereo not drawn)
Data returned: > 100 µM

====

Exercise: state measured TGI for each of the compounds provided.
# Test system: OVCAR-4 ovarian
# EXPERIMENTAL_DETAILS: NCI tumour cell line growth inhibition, 48 h

Worked cases, answers included:
N#CC1C(N)=NNC12Nc1ccccc1N2 (stereo unspecified) = 92.3 µM
COc1cc2c(c(OC)c1OC)C(=O)[C@H]1OC(=O)N[C@@H]21 = > 100 µM

Okay, here is my list. What is TGI for each of these?
1. C=C(C)CCC(C)N1CCC(N2CCC(C(=O)NCCc3ccccc3)CC2)CC1 (stereo unspecified)
2. COc1ccc2cc3n(c2c1)CCc1cc(OC)c(OC)cc1-3

Data returned:
["73 µM", "> 100 µM"]

Okay, here is my list. What is TGI for each of these?
1. COc1ccc(CSc2nc3ccccc3nc2-c2cccs2)cc1
2. CC(C)=CC(=O)CC(=O)C(=O)Nc1ccc(Cl)c(Cl)c1
3. Cc1ccc2c(c1)ncn2-c1ncnc2c1CC(C)c1ccccc1N2C (stereo unspecified)
4. CC(C)CNC(=O)Cn1c2c(c3ccccc31)CCCC2
5. Cc1cc(C2(c3cc(C)c(O)c(C(=O)O)c3)OS(=O)(=O)c3ccccc32)cc(C(=O)O)c1O

Data returned:
1. > 100 µM
2. > 100 µM
3. 24.7 µM
4. > 100 µM
5. > 100 µM

Okay, here is my list. What is TGI for each of these?
1. COc1cc2cc(Oc3ccc(NC(=O)c4ccc(Cl)c(C(F)(F)F)c4)cc3)c(C)nc2cc1OC
2. COc1ccc2c(c1)nc(N)c1c3cccnc3cn21
3. O=C1C=CC(=O)c2c(O)c(N[C@@H](Cc3ccccc3)C(=O)OCc3ccccc3)c(Cl)c(O)c21

Data returned:
> 100 µM
> 100 µM
> 10 µM

Okay, here is my list. What is TGI for each of these?
1. C/C(=N\NC(N)=O)C(CN(C)C)C(c1ccccc1)c1c(O)c2ccccc2oc1=O (stereo unspecified)
2. [O-]c1on[n+]2c1c(Nc1ccc(Cl)cc1)nc1ccccc12
3. Cc1cccc(C)c1NC(=O)CCCC(=O)C1CCC/C1=N\NC(=O)C(=O)NN (stereo unspecified)
4. CC(=O)O[C@]12CCC[C@H]1C1(O)C(O)CCC[C@H]12 (stereo partly specified)
5. C=C[C@]1(C)C=C2C(=O)[C@@]3(O)OC[C@@]4(CCCC(C)(C)C43O)C2(O)C(O)C1 (stereo partly specified)

Data returned:
> 100 µM
> 100 µM
> 100 µM
> 100 µM
5.47 µM

Okay, here is my list. What is TGI for each of these?
1. C=C(Br)CN(CC(=C)Br)C(C)=O
2. CC(C)N1CSC(=S)N(Cc2ccccc2)C1
3. Cc1nnc2sc(-c3ccc(-c4ccccc4Cl)o3)nn12
4. CCOC(=O)N1C2C=C(C)C(C3C(C)C(=O)N31)N(C(=O)c1ccccc1)O2 (stereo unspecified)

Data returned:
1. > 100 µM
2. > 10 µM
3. > 100 µM
4. > 100 µM

====

# Test system: KM20L2 colon
# EXPERIMENTAL_DETAILS: NCI tumour cell line growth inhibition, 48 h
Exercise: state measured TGI for each of the compounds provided.

Okay, here is my list. What is TGI for each of these?
1. CCSc1nc(COC(=O)NC)c(COC(=O)NC)n1C
2. CCOC(=O)CN1CCSC1=NC#N
3. Cc1cccc(C(C)(C)C)c1NC(=O)C(=O)C(c1cnc2ccccc2n1)[N+](=O)[O-] (stereo not given)
4. C/C=C(/CCCCNCCCC)[Si](C)(C)C
5. COc1ccc2cc3n(c2c1)CCc1cc(OC)c(OC)cc1-3

Data returned:
["> 100 µM", "> 100 µM", "> 100 µM", "21.7 µM", "> 100 µM"]

====

Exercise: state measured TGI for each of the compounds provided.
# Tested on: UO-31 renal
# EXPERIMENTAL_DETAILS: NCI tumour cell line growth inhibition, 48 h

C/C(=N\NC(N)=O)C(CN(C)C)C(c1ccccc1)c1c(O)c2ccccc2oc1=O (centres undefined) = > 100 µM
Cc1ccc(NC(=O)CC(=O)n2nc(C)c(N=Nc3ccc(S(=O)(=O)CCOS(=O)(=O)O)cc3)c2C)cc1 = > 100 µM
CCN1C(=O)C(=Cc2ccc(-c3ccccc3)cc2)C(=O)N(CC)C1=S = > 100 µM

Okay, here is my list. What is TGI for each of these?
1. Cn1c(=O)nc2n(-c3ccc(Cl)cc3Cl)c3ccccc3nc-2c1=O
2. CCC1=CC2CC(C(=O)OC)C1(N(C)C)C2=O (centres undefined)
3. NC1CNC(=O)c2cscc21 (centres undefined)
4. Cn1cc(-c2ccc3c(c2)CCN3C(=O)Cc2cccc(C(F)(F)F)c2)c2c(N)ncnc21
5. CCc1c[nH]c2ncnc(N3CC[C@@](N)(CNC(=O)c4ccc(F)cc4F)C3)c12
6. O=C1CC(CC(OCc2ccccc2)C(COCc2ccccc2)OCc2ccccc2)CC(=O)N1 (centres undefined)
7. COc1cnc2c(c1)C(=O)c1c-2n(CCCN2CCCC2)c(=O)c2cc(Cl)ccc12
8. O=C(O)c1cc2c(s1)C(=O)c1sccc1C2=O

Data returned:
1: 26 µM; 2: > 100 µM; 3: > 100 µM; 4: 14.3 µM; 5: > 100 µM; 6: 58.5 µM; 7: 9.02 µM; 8: 16 µM

Okay, here is my list. What is TGI for each of these?
1. C=C(Br)CN(CC(=C)Br)C(C)=O
2. N#Cc1c2c([nH]c(=O)c1C#N)CCCC2

Data returned:
> 100 µM
> 100 µM

Data request: Lab note: need TGI for Nc1nc(OCc2ccccc2)nc2[nH]ncc12 on UO-31 renal, anyone have it?
Data returned: > 100 µM

====

# System: SK-MEL-5 melanoma
# EXPERIMENTAL_DETAILS: NCI tumour cell line growth inhibition, 48 h
Exercise: state measured TGI for each of the compounds provided.

Worked cases, answers included:
COC(=O)[C@]1(C)CCC[C@@]2(C)C1CCC1=C[C@@]3(C(C)C)CC[C@]12OO3 (stereo partly specified) = 33.3 µM
NCc1ccc(-n2c(-c3nonc3N)nc3cnccc32)cc1 = > 25 µM
O=C1N[C@@H]([C@H](CCCCCO)OC(=O)c2ccccc2)CO1 = > 100 µM
CCOC(CCCN1CCC2(CC1)C(=O)N(C)CN2c1ccccc1)(OCC)c1ccc(F)cc1 = 14.9 µM
N#Cc1ccccc1NC(=O)c1ccccc1 = > 100 µM
CCOC(=O)C(NC(=O)NC(C(=O)OCC)C(=O)OCC)C(=O)OCC = > 100 µM

Okay, here is my list. What is TGI for each of these?
1. O=Cc1cc2c(o1)C(=O)c1ccccc1C2=O
2. CN(C)c1ccc(N=Nc2c([O-])ccc3ccccc23)cc1.[C-]#[O+].[C-]#[O+].[Ir]
3. CN(C)Cc1cc(N=Nc2ccccc2Cl)cc(CN(C)C)c1O
4. CCCCC[C@H]1C/C=C2/C(=O)C(Cl)=C[C@@H]2C/C=C\CCCC(=O)O[C@@H](CCCCC)C/C=C2/C(=O)C(Cl)=C[C@@H]2C/C=C\CCCC(=O)O1
5. O=C1CC(CC(OCc2ccccc2)C(COCc2ccccc2)OCc2ccccc2)CC(=O)N1 (stereo unspecified)
6. Nc1nnc(-c2ccco2)c(-c2ccco2)n1
7. C=C(C)[C@@H]1CC[C@@]2(C)[C@H]1[C@H]1CCC3[C@@]4(C)CC[C@H](O)C(C)(C)[C@@H]4CC[C@@]3(C)[C@]1(C)C[C@@H]2O (stereo partly specified)

Data returned:
0.698 µM
> 57.7 µM
32 µM
0.659 µM
30.9 µM
> 100 µM
57.2 µM

Okay, here is my list. What is TGI for each of these?
1. O=C1CCC[C@H]2O[C@@H](COCc3ccccc3)C[C@@H]12
2. COc1ccc2c(c1)C(=O)c1c-2n(CCCN2CCOCC2)c(=O)c2ccccc12
3. CN(C)C(=C1c2cc([N+](=O)[O-])ccc2-c2ccc([N+](=O)[O-])cc21)N(C)C

Data returned:
> 100 µM
2.68 µM
> 100 µM

Okay, here is my list. What is TGI for each of these?
1. C/C1=C\CC[C@@](C)(O)[C@@H]2CC3[C@@H](OC(=O)C34CC4)[C@@H](O2)[C@H](C)CCC1 (stereo partly specified)
2. CC1=CC(=O)C(C(C)=Nc2ccccc2Cl)C(=O)O1 (stereo unspecified)
3. C[C@H](CS(C)(=O)=O)Nc1ncc2cc(Oc3ccc(F)cc3F)c(=O)n(C)c2n1
4. CCOC(=O)N1CCN(C(=O)Nc2cccc3ccccc23)CC1
5. CC1CC/C(=C\c2ccc(N(C)C)cc2)C(=O)/C1=C/c1ccc(N(C)C)cc1 (stereo unspecified)
6. O=c1[nH]cnc2c(C3OC(CO)C(O)C3O)scc12 (stereo unspecified)
7. N/N=C(\Cc1ccccc1)NN=C(N)N
8. [O-]c1on[n+]2c1c(Nc1ccc(Cl)cc1)nc1ccccc12

Data returned:
["30.7 µM", "> 100 µM", "> 25 µM", "> 10 µM", "> 100 µM", "> 100 µM", "> 100 µM", "> 100 µM"]

Okay, here is my list. What is TGI for each of these?
1. CC1=CCS(=O)(=O)C1C(O)C1=C(C)CCCC1(C)C (stereo unspecified)
2. CC(CCc1ccc2c(c1)c(=N)c1ccc(N)cc1n2O)CC(C)(C)C (stereo unspecified)
3. N#CC1C(N)=NNC12Nc1ccccc1N2 (stereo unspecified)
4. c1ccc2c(c1)CCN2CCc1c[nH]c2ccccc12
5. CCOC(=O)C(O)(NC(=O)Nc1ccc(F)cc1)C(F)(F)F (stereo unspecified)
6. CC(C)N1CSC(=S)N(Cc2ccccc2)C1
7. CN(C)CCNC(=O)c1ccc(Cl)c2c(Nc3ccc(S(N)(=O)=O)cc3)c3ccccc3nc12

Data returned:
["> 100 µM", "3.01 µM", "21.2 µM", "> 10 µM", "> 100 µM", "> 10 µM", "11.8 µM"]
